Data provenance: the supplement of paper PMC6607015

- System: HeLa MZ
- Experiment summary: filipin (cholesterol) integrated intensity within LBPA endosomes, Z-score; higher = more cholesterol in LBPA endosomes
- Run conditions: compound concentration in added solution (µM; 5 µl added to 20 µl cells): 10; 18 h
Where a name gives a salt, the structure may show the parent alone.
Listed next: entries and their corresponding filipin (z-score).

Record excerpt, results attached:
Molecule	filipin (z-score)
NCC1(CC(=O)O)CCCCC1	-0.627
CN(C)C(=O)Oc1cccc([N+](C)(C)C)c1 [Neostigmine bromide]	-0.715
CC(C)C[C@H]1C(=O)N2CCC[C@H]2[C@]2(O)O[C@](NC(=O)[C@@H]3C=C4c5cccc6[nH]c(Br)c(c56)C[C@H]4N(C)C3)(C(C)C)C(=O)N12 [Bromocryptine mesylate]	0.695

Please look up its filipin (z-score): CCOC(=O)c1cncn1[C@H](C)c1ccccc1 [Etomidate]
-0.672

Please look up its filipin (z-score): O=[N+]([O-])O[C@H]1CO[C@H]2[C@@H]1OC[C@H]2O[N+](=O)[O-] [Isosorbide dinitrate]
-0.471

----------
- System: HeLa MZ
- Experiment summary: LBPA endosome anti-LBPA integrated intensity (sum per cell), Z-score; higher = more LBPA staining
- Run conditions: compound concentration in added solution (µM; 5 µl added to 20 µl cells): 10; 18 h
Where a name gives a salt, the structure may show the parent alone.
Listed next: entries and their corresponding LBPA endosome anti-LBPA integrated intensity (z-score).
Could you respond with only the numeric value?

Record excerpt, results attached:
Molecule	Readout value
CCN(CC)C(C)C(=O)c1ccccc1 (centres undefined) [Amfepramone hydrochloride]	0.252
CC(NC(C)(C)C)C(=O)c1cccc(Cl)c1 (centres undefined) [Bupropion hydrochloride]	-0.652
CC1OC(OC2/C=C/C=C/C=C/C=C/CC/C=C/C=C/[C@H](C)[C@@H](O)[C@@H](C)[C@H](C)OC(=O)CC(O)CC(O)CC(O)CCC(O)C(O)C[C@]3(O)CC(O)C(C(=O)O)C(C2)O3)C(O)C(N)C1O (some centres undefined)	0.129

Please look up its LBPA endosome anti-LBPA integrated intensity (z-score): CC(C)(C)NCC(O)c1ccccc1Cl (centres undefined)
1.38

----------
- Test system: HeLa MZ
- Experiment summary: filipin (cholesterol) integrated intensity within LBPA endosomes, Z-score; higher = more cholesterol in LBPA endosomes
- Run conditions: compound concentration in added solution (µM; 5 µl added to 20 µl cells): 10; 18 h
Counter-ions that a name gives are not always drawn.
Listed next: entries and their corresponding filipin (z-score).

Record excerpt, results attached:
Compound	filipin (z-score)
CC[N+]1(C)CCCC(OC(=O)C(O)(c2ccccc2)c2ccccc2)C1 (centres undefined) [Pipenzolate bromide]	-0.211
CC(C)c1c(CN(C)C(C)Cc2ccccc2)n(C)n(-c2ccccc2)c1=O (centres undefined)	-0.445

// lookup filipin (z-score) | system=HeLa MZ | key= `NCCCNCCSP(=O)(O)O`
-0.603

// lookup filipin (z-score) | system=HeLa MZ | key= CN1CCC2(C)c3cc(O)ccc3N(C)C12 (single isomer, unassigned; (-)) [(-)-Eseroline fumarate salt]
-0.33

// lookup filipin (z-score) | system=HeLa MZ | key= CC[C@@H](CO)NC(=O)[C@@H]1C=C2c3cccc4[nH]cc(c34)C[C@H]2N(C)C1 [Methylergometrine maleate]
-0.637

// lookup filipin (z-score) | system=HeLa MZ | key= C[C@]12N[C@H](Cc3ccccc31)c1ccccc12 [Dizocilpine maleate]
-0.275

// lookup filipin (z-score) | system=HeLa MZ | key= `O=C(CCCN1CCC2(CC1)C(=O)NCN2c1ccccc1)c1ccc(F)cc1`
2.13

// lookup filipin (z-score) | system=HeLa MZ | key= S=C(NC1CCCCC1)N1CCC(c2cnc[nH]2)CC1 [Thioperamide maleate]
0.431

// lookup filipin (z-score) | system=HeLa MZ | key= `Oc1cc(Cl)ccc1Oc1ccc(Cl)cc1Cl`
-0.129

----------
- Test system: HeLa MZ
- Experiment summary: LBPA endosome anti-LBPA integrated intensity (sum per cell), Z-score; higher = more LBPA staining
- Run conditions: compound concentration in added solution (µM; 5 µl added to 20 µl cells): 10; 18 h
Counter-ions that a name gives are not always drawn.
Listed next: entries and their corresponding LBPA endosome anti-LBPA integrated intensity (z-score).
Could you respond with only the numeric value?

Compound	Readout value
CN(C)C(=O)Oc1cccc([N+](C)(C)C)c1 [Neostigmine bromide]	-0.496

Please look up its LBPA endosome anti-LBPA integrated intensity (z-score): CC(N)C(O)c1ccccc1 (configuration not stated) [Phenylpropanolamine hydrochloride]
-1.1

Please look up its LBPA endosome anti-LBPA integrated intensity (z-score): CC(Cc1ccc(O)cc1)NCC(O)c1cc(O)cc(O)c1 (configuration not stated) [Fenoterol hydrobromide]
0.00712

Please look up its LBPA endosome anti-LBPA integrated intensity (z-score): CN1C[C@H](C(=O)N[C@]2(C)O[C@@]3(O)[C@@H]4CCCN4C(=O)[C@H](Cc4ccccc4)N3C2=O)C[C@@H]2c3cccc4[nH]cc(c34)C[C@H]21 [Dihydroergotamine tartrate]
2.55

Please look up its LBPA endosome anti-LBPA integrated intensity (z-score): CCC(C)C1O[C@]2(C=C[C@@H]1C)C[C@@H]1CC(C/C=C(\C)[C@@H](OC3C[C@H](OC)[C@@H](OC4C[C@H](OC)[C@@H](O)[C@H](C)O4)[C@H](C)O3)[C@@H](C)/C=C/C=C3\COC4[C@H](O)C(C)=CC(C(=O)O1)[C@]34O)O2 (some centres not stated)
0.136

Please look up its LBPA endosome anti-LBPA integrated intensity (z-score): `C=CCC1(CC(C)C)C(=O)NC(=O)NC1=O`
-0.493

Please look up its LBPA endosome anti-LBPA integrated intensity (z-score): COP(=O)(OC)C(O)C(Cl)(Cl)Cl (configuration not stated)
-0.711

----------
- Tested on: A431
- Experiment summary: whole-cell filipin (free cholesterol) integrated intensity, Z-score; higher = more cholesterol staining
- Run conditions: compound concentration in added solution (µM; 5 µl added to 20 µl cells): 10; 18 h
Listed next: entries and their corresponding whole-cell filipin (z-score).

Please look up its whole-cell filipin (z-score): C[C@H](N)[C@H](O)c1ccc(O)c(O)c1 [Levonordefrin]
0.247

Please look up its whole-cell filipin (z-score): C[N+]1(C)CCCC(OC(=O)C(O)(c2ccccc2)c2ccccc2)C1 (configuration not stated) [Mepenzolate bromide]
-0.409

----------
- Tested on: A431
- Experiment summary: filipin (cholesterol) integrated intensity within LBPA endosomes, Z-score; higher = more cholesterol in LBPA endosomes
- Run conditions: compound concentration in added solution (µM; 5 µl added to 20 µl cells): 10; 18 h
Where a name gives a salt, the structure may show the parent alone.
Listed next: entries and their corresponding filipin (z-score).

Molecule	Study target	filipin (z-score)
O=c1[nH]c2ccccc2n1CCCN1CCC(n2c(=O)[nH]c3cc(Cl)ccc32)CC1	A431	2.09
CCC1(C)CC(=O)NC(=O)C1 [Bemegride]	A431	-0.547
C=C(C)[C@@H]1[C@H]2OC(=O)[C@@H]1[C@]1(O)C[C@H]3O[C@]34C(=O)O[C@H]2[C@]14C	A431	-0.448
NCC(O)c1ccc(O)cc1 (racemic) [(+,-)-Octopamine hydrochloride]	A431	-0.407
CN[C@@H]1[C@@H](O)[C@@H](O[C@@H]2[C@@H](O)[C@H](O[C@H]3O[C@H](CN)CC[C@H]3N)[C@@H](N)C[C@H]2N)OC[C@]1(C)O.CN[C@@H]1[C@@H](O)[C@@H](O[C@@H]2[C@@H](O)[C@H](O[C@H]3O[C@H]([C@@H](C)N)CC[C@H]3N)[C@@H](N)C[C@H]2N)OC[C@]1(C)O.CN[C@@H]1[C@@H](O)[C@@H](O[C@@H]2[C@@H](O)[C@H](O[C@H]3O[C@H]([C@@H](C)NC)CC[C@H]3N)[C@@H](N)C[C@H]2N)OC[C@]1(C)O [Gentamicine sulfate]	A431	-0.535

Please look up its filipin (z-score): `O=C(O)CCCc1ccc(N(CCCl)CCCl)cc1`
-0.393

----------
- System: HeLa MZ
- Experiment summary: LBPA endosome anti-LBPA integrated intensity (sum per cell), Z-score; higher = more LBPA staining
- Run conditions: compound concentration in added solution (µM; 5 µl added to 20 µl cells): 10; 18 h
Structures can show the parent of a compound that is named as a salt.
Endpoint: LBPA endosome anti-LBPA integrated intensity (z-score)
Could you respond with only the numeric value?

Please look up its LBPA endosome anti-LBPA integrated intensity (z-score): NCCCNCCSP(=O)(O)O [Amifostine]
-1

Please look up its LBPA endosome anti-LBPA integrated intensity (z-score): C[C@]12C[C@H]3S[C@H]3C[C@@H]1CC[C@@H]1[C@@H]2CC[C@]2(C)[C@@H](O)CC[C@@H]12 [Epitiostanol]
0.565

Please look up its LBPA endosome anti-LBPA integrated intensity (z-score): CC(C)c1cccc(C(C)C)c1O [Propofol]
-0.0677

Please look up its LBPA endosome anti-LBPA integrated intensity (z-score): O=c1[nH]c2ccccc2n1CCCN1CCC(n2c(=O)[nH]c3cc(Cl)ccc32)CC1 [Domperidone]
1.92

Please look up its LBPA endosome anti-LBPA integrated intensity (z-score): CC(CCc1ccccc1)NC(C)C(O)c1ccc(O)cc1 (centres undefined) [Nylidrin]
1.33

Please look up its LBPA endosome anti-LBPA integrated intensity (z-score): CC(=O)OC1CN2CCC1CC2 (centres undefined) [Aceclidine Hydrochloride]
-1.07
